assay: Plasmodium falciparum growth inhibition, primary screen, strain 3D7, DAPI fluorescence, 100 nL (AID 1184);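 further: parasites grown inside human red blood cells in medium with human serum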; details: P. falciparum 3D7 growth, 3 d, higher = more signal
Reported z-score values for the following molecules.

Molecule: CC(=O)c1ccc(C(O)C2C=CC3C(=O)N(C)C(=O)C3N2NC(=O)OC(C)(C)C)cc1 (stereo not drawn)
z-score: -0.29
--
Molecule: CN(C)CCCC[C@@H]1NC(=O)[C@@H]2C[C@H](C(=O)NCc3ccc(F)cc3)[C@H](c3ccc(O)cc3)N2C1=O
z-score: -0.532
--
Molecule: [N-]=[N+]=NCc1ccccc1C[C@]1(C(=O)NCc2ccccc2)N=C(c2ccc(OCCCO)cc2)O[C@H]1c1ccccc1CN=[N+]=[N-]
z-score: -2.24

###

experiment: S. cerevisiae RM11-1a growth modifiers, primary screen, strain RM11-1a, OD600, basal, 24 h (AID 1177); conditions: OD600, 24 h, higher = more signal, called active from +8 up or from −8 down;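 further: cultures grown under basal conditions with no added stressor; test concentration not given here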
// label = true (1) if z-score is not less than 0.4, otherwise false (0)

Compound: COCCOC(=O)N1C(=O)[C@@]2(c3cc(C#CC4(O)CCCCCC4)ccc31)[C@H](c1ccccc1OCCO)N1[C@H](c3ccccc3)[C@H](c3ccccc3)OC(=O)[C@H]1[C@@H]2C(=O)N1CCCCCCC1
Category label: true (1)
//
Compound: O=C1NC(=O)C2C1C=CC(C(O)c1cccc(O)c1)N2Nc1ccc(Cl)cc1Cl (stereo unspecified)
Category label: true (1)
//
Compound: COC(=O)[C@@]1(Cc2ccc(F)cc2)[C@H]2c3cc(C(=O)N(C)C)n(CCn4cc([N+](=O)[O-])nc4C)c3C[C@H]2CN1C(=O)c1ccccc1
Category label: true (1)
//
Compound: C=CCC(OC(C)=O)[C@@H]1[C@@H](N(Cc2ccc(-c3cccc(C(F)(F)F)c3)o2)C(=O)c2cccc3ccccc23)c2cc(OCCCO)ccc2N1C(=O)c1ccc2ccccc2c1 (stereo partly specified)
Category label: false (0)
//
Compound: CC(C)C[C@H]1NC(=O)[C@@]23C(=O)N[C@@H](Cc4ccccc4)C2[C@H](C)[C@@]2(C)O[C@H]2C3/C=C/C/C=C\CNC(=O)[C@@H]2CCCN2C1=O (stereo partly specified)
Category label: false (0)
//
Compound: CCCCC(=C=CC[C@H](O)c1ccc(OCCO)cc1)C[C@H](O)c1ccccn1
Category label: false (0)
//
Compound: CC(C)=CCN(C(=O)C#Cc1ccccc1)[C@H](CO)c1ccccc1
Category label: true (1)
//
Compound: COCCCN1C(=O)[C@@]2(Cc3ccccc31)c1ccccc1C(=O)N(Cc1ccccc1OC)[C@H]2c1ccc(CO)cc1
Category label: false (0)
//
Compound: CO[C@H]1O[C@H](CO)[C@@H](OC(=O)Nc2ccc3c(c2)OCO3)[C@@H]2OC(=O)[C@@H](Cc3ccccc3)C/C=C/C[C@H](Cc3ccccc3)C(=O)O[C@@H]12
Category label: true (1)
//
Compound: COC(=O)[C@@H]1N=C(c2ccc(OCCCO)cc2)O[C@@H]1c1ccccc1CN=[N+]=[N-]
Category label: true (1)
//
Compound: COc1cc(OC)c(C(O)C2C=CC3C(=O)N(c4ccccc4)C(=O)C3N2Nc2ccccc2F)cc1Br (stereo unspecified)
Category label: false (0)
//
Compound: CN(C)CCCC[C@@H]1NC(=O)[C@@H]2C[C@H](C(=O)NCc3ccc(F)cc3)[C@H](c3ccc(O)cc3)N2C1=O
Category label: false (0)
//
Compound: CCCCC(=C=CC[C@@H](O)c1ccc(OCCO)cc1)C[C@@H](O)c1ccccn1
Category label: true (1)
//
Compound: C=CCNC(=O)[C@H]1[C@@H]2C(=O)O[C@@H](c3ccccc3)[C@@H](c3ccccc3)N2[C@@H](c2ccccc2OCCO)[C@]12C(=O)N(C(=O)OCCOC)c1ccccc12
Category label: true (1)
//
Compound: COCCOC(=O)N1C(=O)[C@@]2(c3cc(C#CCC(C(=O)OC)C(=O)OC)ccc31)[C@H](c1ccc(OCCO)cc1)N1[C@H](c3ccccc3)[C@H](c3ccccc3)OC(=O)[C@H]1[C@@H]2C(=O)N1CCCCCCC1
Category label: true (1)
//
Compound: C=CC(CO)NC(=O)OCC1c2ccccc2-c2ccccc21 (stereo unspecified)
Category label: false (0)
//
Compound: COCCOC(=O)N1C(=O)[C@@]2(c3ccccc31)[C@H](c1ccc(OCCO)cc1)N1[C@H](c3ccccc3)[C@H](c3ccccc3)OC(=O)[C@H]1[C@@H]2C(=O)N1CCN(c2ncccn2)CC1
Category label: true (1)
//
Compound: CCOC(=O)C[C@H]1[C@H](OC(=O)c2ccc(-c3ccccc3)cc2)[C@@H](NC(=O)CC(C)C)c2cc(OCCCO)ccc2N1C(=O)Cc1ccc(OC)cc1
Category label: false (0)
//
Compound: NC(=O)NCC#Cc1ccc2c(c1)[C@]1(C(=O)N2)[C@H](C(=O)N2CCCCCCC2)[C@H]2C(=O)O[C@H](c3ccccc3)[C@H](c3ccccc3)N2[C@@H]1c1ccc(O)cc1
Category label: false (0)
//
Compound: CC(C)CNC(=O)[C@@H]1c2ccccc2C(=O)N(Cc2ccccc2)[C@H]1c1ccc(CO)cc1
Category label: false (0)
//
Compound: C=C(COC)/C(=C/C[C@H](OC(=O)c1ccncc1)c1cccc(OCCO)c1)c1cnc2ccccc2c1
Category label: false (0)

###

biological target: Focal adhesion kinase 1 (Homo sapiens) (UniProt Q05397); assay: small-molecule microarray binders of FAK, primary screen, biochemical, 635/667 nm fluorescence, BSA, DTT (AID 1130); conditions: PTK2 binding, 635 nm fluorescence, higher = more signal;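 further: composite of spot emission at 667 nm and signal to noise over triplicate slides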
Sequence (Q05397 whole entry, looked up): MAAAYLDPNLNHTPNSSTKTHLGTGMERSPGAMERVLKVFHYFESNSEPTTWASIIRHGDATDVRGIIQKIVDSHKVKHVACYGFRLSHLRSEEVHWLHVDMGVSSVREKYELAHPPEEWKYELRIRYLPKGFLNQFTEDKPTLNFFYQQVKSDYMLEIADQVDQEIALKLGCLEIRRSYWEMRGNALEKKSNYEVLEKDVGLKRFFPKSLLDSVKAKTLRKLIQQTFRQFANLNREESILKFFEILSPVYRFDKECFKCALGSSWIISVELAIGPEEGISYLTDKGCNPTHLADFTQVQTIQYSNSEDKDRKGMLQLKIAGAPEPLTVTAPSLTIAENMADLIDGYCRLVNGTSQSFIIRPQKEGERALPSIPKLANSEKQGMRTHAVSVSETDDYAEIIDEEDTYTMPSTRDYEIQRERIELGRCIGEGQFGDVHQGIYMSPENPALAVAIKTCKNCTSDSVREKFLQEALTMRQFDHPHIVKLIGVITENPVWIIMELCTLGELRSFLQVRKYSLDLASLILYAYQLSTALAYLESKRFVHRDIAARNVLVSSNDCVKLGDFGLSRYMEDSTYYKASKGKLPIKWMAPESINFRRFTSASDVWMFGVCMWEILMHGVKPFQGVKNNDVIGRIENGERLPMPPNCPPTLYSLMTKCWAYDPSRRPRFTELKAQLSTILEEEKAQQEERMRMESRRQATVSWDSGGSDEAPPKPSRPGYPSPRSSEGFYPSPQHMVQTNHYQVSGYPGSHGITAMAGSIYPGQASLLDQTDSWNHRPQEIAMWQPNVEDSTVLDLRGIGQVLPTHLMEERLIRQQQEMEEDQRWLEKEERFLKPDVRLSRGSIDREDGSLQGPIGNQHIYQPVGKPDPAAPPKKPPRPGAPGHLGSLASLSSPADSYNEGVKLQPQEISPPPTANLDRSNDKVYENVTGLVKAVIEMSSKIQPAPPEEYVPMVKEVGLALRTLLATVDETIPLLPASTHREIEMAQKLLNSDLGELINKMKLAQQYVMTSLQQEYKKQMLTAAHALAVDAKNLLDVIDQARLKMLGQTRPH
Reported composite z-score values for the following compounds.

Compound: COC(=O)[C@H](Cc1ccc(O)cc1)N1CC2=CCCC=C[C@@H]2[C@H]1[C@H](O)Cc1ccccc1
System: Focal adhesion kinase 1 (Homo sapiens) (UniProt Q05397)
composite z-score: -0.0148
//
Compound: O=C1NC(=O)C2C1C=CC(C(O)c1cccc(O)c1)N2Nc1ccc(Cl)cc1Cl (stereo not drawn)
System: Focal adhesion kinase 1 (Homo sapiens) (UniProt Q05397)
composite z-score: 0.263
//
Compound: CCCCC(=C=CC[C@@H](O)c1cccc(OCCO)c1)C[C@@H](O)COCc1ccccc1
System: Focal adhesion kinase 1 (Homo sapiens) (UniProt Q05397)
composite z-score: 0.116
//
Compound: Cc1c(NC(=O)/C(C#N)=C/c2ccc(Cl)cc2)c(=O)n(-c2ccccc2)n1C
System: Focal adhesion kinase 1 (Homo sapiens) (UniProt Q05397)
composite z-score: -0.171
//
Compound: COCCOC(=O)N1C(=O)[C@@]2(c3ccccc31)[C@H](c1ccc(OCCO)cc1)N1[C@H](c3ccccc3)[C@H](c3ccccc3)OC(=O)[C@H]1[C@@H]2C(=O)N1CCN(c2ncccn2)CC1
System: Focal adhesion kinase 1 (Homo sapiens) (UniProt Q05397)
composite z-score: 0.929
//
Compound: COCCOC(=O)N1C(=O)[C@@]2(c3ccccc31)[C@H](C(N)=O)[C@H]1C(=O)O[C@H](c3ccccc3)[C@H](c3ccccc3)N1[C@@H]2c1ccc(OCCO)cc1
System: Focal adhesion kinase 1 (Homo sapiens) (UniProt Q05397)
composite z-score: 0.451
//
Compound: C=C(COC)C(=O)CC[C@@H](OC(=O)c1cccnc1)c1cccc(OCCO)c1
System: Focal adhesion kinase 1 (Homo sapiens) (UniProt Q05397)
composite z-score: -0.437
//
Compound: COCCOC(=O)N1C(=O)[C@@]2(c3cc(C#CC4(O)CCCCCC4)ccc31)[C@H](c1ccc(OCCO)cc1)N1[C@H](c3ccccc3)[C@H](c3ccccc3)OC(=O)[C@H]1[C@@H]2C(N)=O
System: Focal adhesion kinase 1 (Homo sapiens) (UniProt Q05397)
composite z-score: 0.528

###

Reported composite z-score values for the following compounds.
target: Neurogenic locus notch homolog protein 2 (Homo sapiens); assay: Notch2 binders on small-molecule microarrays, primary screen, biochemical, small-molecule microarray, 635 nm fluorescence, stem cell growth factors (AID 1073); settings: Notch2 binding, higher = more signal
Readout name: composite z-score

Compound: O=C1OCCC=C[C@H]2OC34C=CCN(CCN5CCOCC5)C(=O)[C@H]3N(CCCO)C(=O)[C@@H]4C12 (some centres undefined)
Readout name: composite z-score
Observed measurement: -0.956
//
Compound: COc1ccc(NN2C(C(O)c3ccc(OC)cc3)C=CC3C(=O)N(C4CCCCC4)C(=O)C32)cc1 (centres undefined)
Readout name: composite z-score
Observed measurement: 1.18
//
Compound: CN(C)CCCC[C@@H]1NC(=O)[C@@H]2C[C@H](C(=O)NCCCCCCNC(=O)CS)[C@H](c3cccc(OCCO)c3)N2C1=O
Readout name: composite z-score
Observed measurement: -0.453
//
Compound: CC=CC(O)C1C=CC2C(=O)N(C)C(=O)C2N1NC(=O)OC(C)(C)C (centres undefined)
Readout name: composite z-score
Observed measurement: 1.16
